Value source: patent US9249111B2

molecular target: BRAF V600E (Homo sapiens, UniProt P15056, V600E); construct: purchased Invitrogen; assay: Z'-LYTE kinase inhibition assay (Invitrogen), BRAF V600E; format: biochemical; settings: Z'-LYTE method; read-out: IC50 against BRAF V600E
Sequence (P15056 whole entry V600E): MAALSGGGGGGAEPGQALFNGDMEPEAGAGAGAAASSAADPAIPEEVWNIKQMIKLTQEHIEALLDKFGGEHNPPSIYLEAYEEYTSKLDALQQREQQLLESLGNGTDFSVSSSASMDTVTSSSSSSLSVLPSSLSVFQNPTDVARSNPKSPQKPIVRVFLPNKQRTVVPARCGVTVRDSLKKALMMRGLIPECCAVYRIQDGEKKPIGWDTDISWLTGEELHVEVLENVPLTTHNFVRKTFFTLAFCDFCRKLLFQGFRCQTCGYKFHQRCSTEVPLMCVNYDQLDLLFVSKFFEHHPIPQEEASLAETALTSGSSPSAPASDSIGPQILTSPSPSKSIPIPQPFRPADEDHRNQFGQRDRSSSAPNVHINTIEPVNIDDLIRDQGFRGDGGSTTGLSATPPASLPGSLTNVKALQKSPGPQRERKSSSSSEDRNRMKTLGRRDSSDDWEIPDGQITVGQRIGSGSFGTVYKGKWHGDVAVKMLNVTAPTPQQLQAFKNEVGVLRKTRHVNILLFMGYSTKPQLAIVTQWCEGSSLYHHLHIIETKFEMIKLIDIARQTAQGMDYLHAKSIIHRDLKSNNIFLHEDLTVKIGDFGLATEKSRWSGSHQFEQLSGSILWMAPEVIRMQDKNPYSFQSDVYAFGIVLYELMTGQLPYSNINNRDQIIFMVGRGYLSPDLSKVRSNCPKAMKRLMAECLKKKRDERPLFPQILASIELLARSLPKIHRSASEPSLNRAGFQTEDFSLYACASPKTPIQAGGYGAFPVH
value_type: IC50

> print(dat)
                              sample.smiles  value.type  reported.measurement
1  O=C(c1ccc2nccnc2c1)c1c(F)ccc(OCc2ccccc2)c1F        IC50               < 50 nM

====

Quick reference for inhibition at 1 µM among some compounds
biological target: BRAF V600E (Homo sapiens, UniProt P15056, V600E); construct: purchased Invitrogen; test: Z'-LYTE kinase inhibition assay (Invitrogen), BRAF V600E; assay type: biochemical; settings: compound at 1 μM; Z'-LYTE method
value_type: inhibition at 1 µM

> print(dat)
                              sample.smiles                        measurement.target  reported.measurement
1  O=C(c1ccc2nccnc2c1)c1c(F)ccc(OCc2ccccc2)c1F  BRAF V600E (Homo sapiens, UniProt P15056, V600E)                 > 89%
2  O=C(c1ccc2nccnc2c1)c1c(F)ccc(OCc2cccc(F)c2)c1F  BRAF V600E (Homo sapiens, UniProt P15056, V600E)             30 to 89%
3  O=C(c1ccc2nccnc2c1)c1c(F)ccc(OCc2cccc(Cl)c2)c1F  BRAF V600E (Homo sapiens, UniProt P15056, V600E)             30 to 89%
4       COc1ccc(F)c(C(=O)c2ccc3nccnc3c2)c1F  BRAF V600E (Homo sapiens, UniProt P15056, V600E)             30 to 89%

====

test system: A549 cells; experiment: MTT cell growth inhibition assay, A549 cells; assay type: cell-based; details: Homo sapiens, 72 h compound exposure
value_type: IC50

> print(dat)
                               sample.smiles  measurement.target  value.type  reported.measurement
 1  O=C(c1ccc2nccnc2c1)c1c(F)ccc(OCc2ccccc2)c1F          A549 cells        IC50                < 1 µM
 2    COc1cnc2ccc(C(=O)c3c(F)ccc(O)c3F)cc2n1          A549 cells        IC50             1 to 5 µM
 3       COc1ccc(F)c(C(=O)c2ccc3nccnc3c2)c1F          A549 cells        IC50             1 to 5 µM
 4  O=C(c1ccc2ncc(-c3cccnc3)nc2c1)c1c(F)ccc(O)c1F          A549 cells        IC50             1 to 5 µM
 5   N#Cc1cnc2ccc(C(=O)c3c(F)ccc(O)c3F)cc2n1          A549 cells        IC50             1 to 5 µM
 6  O=C(c1ccc2nccnc2c1)c1c(F)ccc(OCc2cccc(F)c2)c1F          A549 cells        IC50                > 5 µM
 7        O=C(c1ccc2nccnc2c1)c1c(F)ccc(O)c1F          A549 cells        IC50             1 to 5 µM
 8    O=C(c1ccc2ncc(Cl)nc2c1)c1c(F)ccc(O)c1F          A549 cells        IC50             1 to 5 µM
 9  O=C(c1ccc2ncc(-c3ccccc3)nc2c1)c1c(F)ccc(O)c1F          A549 cells        IC50             1 to 5 µM
10  O=C(c1ccc2nccnc2c1)c1c(F)ccc(OCc2cccc(Cl)c2)c1F          A549 cells        IC50                > 5 µM
